# Assayed system: Type-1 angiotensin II receptor (Homo sapiens)
# Sequence (P30556 whole entry): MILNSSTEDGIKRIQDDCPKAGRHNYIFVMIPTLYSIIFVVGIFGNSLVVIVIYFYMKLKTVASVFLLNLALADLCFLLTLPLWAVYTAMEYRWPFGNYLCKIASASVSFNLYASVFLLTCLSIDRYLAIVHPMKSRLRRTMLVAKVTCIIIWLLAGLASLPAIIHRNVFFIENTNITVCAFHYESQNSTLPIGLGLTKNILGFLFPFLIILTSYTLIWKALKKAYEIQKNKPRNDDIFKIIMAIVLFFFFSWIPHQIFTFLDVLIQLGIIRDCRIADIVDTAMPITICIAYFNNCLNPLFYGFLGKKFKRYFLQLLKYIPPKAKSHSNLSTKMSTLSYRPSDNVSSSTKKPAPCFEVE
# Assay notes: Binding affinity to angiotensin AT1 receptor
Assay metric: pIC50
Units for pIC50: none; it is -log10 of a concentration expressed in mol/L.

Reported pIC50 for CCCCc1nc2ccc(C(C)(C)OC)cc2c(=O)n1Cc1ccc(-c2ccccc2-c2nn[nH]n2)cc1 : what is it?
8.22

Next record, please: CCCCc1cn(CCCC)c(=O)n1Cc1ccc(-c2ccccc2-c2nnn[nH]2)cc1
7.92

Next record, please: CCCCc1cn([C@H]2[C@H](C)CCC[C@@H]2C)c(=O)n1Cc1ccc(-c2ccccc2-c2nnn[nH]2)nc1
8.31

Next record, please: CCCCc1nc2ccn(CC(=O)N3CCCCC3)c(=O)c2n1Cc1ccc(-c2ccccc2S(=O)(=O)NC(=O)OCc2ccccc2)cc1F
8.33

Next record, please: CCOc1nc2cccc(C(=O)O)c2n1Cc1ccc(-c2ccccc2-c2nnn[nH]2)cc1
6.96

Next record, please: CCCCc1nc(Cc2ccc(-c3ccccc3-c3nnn[nH]3)cc2)n(CCCC)n1
7.80

Next record, please: CCCCc1nc(CCCC)n(Cc2ccc(-c3ccccc3-c3nnn[nH]3)cc2)n1
8.25

Next record, please: CCCCc1cn(CCCC)c(=O)n1Cc1ccc(-c2ccccc2-c2nnn[nH]2)nc1
8.19

Next record, please: CCCCc1nnc(SCc2ccccc2C(=O)O)n1Cc1ccc(-c2ccccc2-c2nn[nH]n2)cc1
8.85
